# targetDesc: GR (human) (Homo sapiens, UniProt P04150)
# Construct: GR (human) (agonist radioligand) IM-9 cells (cytosol); endogenous in cells
# Sequence (P04150 1-777): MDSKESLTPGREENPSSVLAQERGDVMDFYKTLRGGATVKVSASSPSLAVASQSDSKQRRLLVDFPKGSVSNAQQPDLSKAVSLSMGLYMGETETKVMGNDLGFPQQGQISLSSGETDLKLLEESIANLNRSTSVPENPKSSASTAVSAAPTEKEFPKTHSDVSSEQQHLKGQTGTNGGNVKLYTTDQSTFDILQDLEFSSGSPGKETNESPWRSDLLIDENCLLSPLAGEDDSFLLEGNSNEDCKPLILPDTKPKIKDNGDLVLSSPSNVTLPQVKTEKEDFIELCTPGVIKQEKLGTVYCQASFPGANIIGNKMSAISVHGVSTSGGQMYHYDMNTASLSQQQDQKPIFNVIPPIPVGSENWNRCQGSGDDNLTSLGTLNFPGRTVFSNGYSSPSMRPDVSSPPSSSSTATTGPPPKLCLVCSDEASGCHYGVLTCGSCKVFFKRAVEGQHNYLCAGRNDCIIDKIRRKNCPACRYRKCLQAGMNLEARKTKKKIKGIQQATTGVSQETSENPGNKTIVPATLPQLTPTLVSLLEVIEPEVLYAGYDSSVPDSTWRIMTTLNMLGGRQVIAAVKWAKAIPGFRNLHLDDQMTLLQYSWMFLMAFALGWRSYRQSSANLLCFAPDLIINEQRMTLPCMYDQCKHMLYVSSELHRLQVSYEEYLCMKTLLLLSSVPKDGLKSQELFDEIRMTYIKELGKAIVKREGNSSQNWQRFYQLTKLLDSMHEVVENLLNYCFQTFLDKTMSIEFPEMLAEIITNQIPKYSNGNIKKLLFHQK
# assayRemarks: Radioligand binding to GR ([3H]dexamethasone, IM-9 cells cytosol)
# conditionSet: [3H]-dexamethasone 1.5 nM, IM-9 cytosol
pIC50: −log10 of the molar value.

compound	pIC50
CN1CCC(Oc2ccc(N3C(=S)N(c4cnc(C#N)c(C(F)(F)F)c4)C(=O)C34CCC4)cc2)CC1 [Cpd 85]	4.70
